Where these numbers come from: patent US9493537B2

Assay: Biodistribution in B16/F1 melanoma-bearing C57 mice
Assay type: in vivo
Conditions: female, C57, mouse, tumor, iv, 0.037 MBq, total radioactivity, 2 h post-injection; read-out: Tumor uptake
Metric Name: tissue uptake at 2 h (%ID/g)
Hi! Could you send only the number? It should be in %ID/g, unit omitted.

# query: tissue uptake at 2 h of entry CCCC[C@H](NC(=O)CN1CCN(CC(=O)O)CCN(CC(=O)O)CCN(CC(=O)O)CC1)C(=O)N[C@H]1CC(=O)NCCCC[C@@H](C(N)=O)NC(=O)[C@H](Cc2c[nH]c3ccccc23)NC(=O)[C@H](CCCNC(=N)N)NC(=O)[C@@H](Cc2ccccc2)NC(=O)[C@H](Cc2c[nH]cn2)NC1=O [^111In-DOTA-Nle-CycMSHhex, metal not drawn] 19.4

* * *

Test: Biodistribution in B16/F1 melanoma-bearing C57 mice
Type: in vivo
Conditions: female, C57, mouse, tumor and kidney, iv, 0.037 MBq, total radioactivity, tumor/kidney uptake ratio, times that of ^111In-DOTA-Nle-CycMSHhex, 4 h post-injection
Positions of bridges follow the written chain, without caps; N, C: chain ends. Non-standard residues stand in square brackets, D forms with d. Residues, ends and D or L forms follow the SMILES beside them. *: point of attachment. DOTA = O=C(O)CN1CCN(CC(=O)O)CCN(CC(=O)*)CCN(CC(=O)O)CC1; Nle = CCCC[C@H](N)C(=O)O
Metric Name: tissue to tissue ratio at 4 h
Number only, no unit.

Record request: tissue to tissue ratio at 4 h value, item CCCC[C@H](NC(=O)CNC(=O)CNC(=O)CN1CCN(CC(=O)O)CCN(CC(=O)O)CCN(CC(=O)O)CC1)C(=O)N[C@H]1CC(=O)NCCCC[C@@H](C(N)=O)NC(=O)[C@H](Cc2c[nH]c3ccccc23)NC(=O)[C@H](CCCNC(=N)N)NC(=O)[C@@H](Cc2ccccc2)NC(=O)[C@H](Cc2c[nH]cn2)NC1=O [^111In-DOTA-GGNle-CycMSHhex, metal not drawn] ({DOTA}-GG[Nle]DH[dF]RWK-NH2; lactam 4-9) 1.61

* * *

Experiment: Biodistribution in B16/F1 melanoma-bearing C57 mice
Assay type: in vivo
Details: female, C57, mouse, brain, iv, 0.037 MBq, total radioactivity, 2 h post-injection; read-out: Brain uptake
Metric Name: tissue uptake at 2 h (%ID/g)
Give your result in %ID/g as a bare value.

Which tissue uptake at 2 h value belongs to CCCC[C@H](NC(=O)CN1CCN(CC(=O)O)CCN(CC(=O)O)CCN(CC(=O)O)CC1)C(=O)N[C@H]1CC(=O)NCCCC[C@@H](C(N)=O)NC(=O)[C@H](Cc2c[nH]c3ccccc23)NC(=O)[C@H](CCCNC(=N)N)NC(=O)[C@@H](Cc2ccccc2)NC(=O)[C@H](Cc2c[nH]cn2)NC1=O [^111In-DOTA-Nle-CycMSHhex, metal not drawn] ? 0.02

* * *

Assay: Biodistribution in B16/F1 melanoma-bearing C57 mice
Assay type: in vivo
Conditions: female, C57, mouse, tumor, iv, 0.037 MBq, total radioactivity, 24 h post-injection; read-out: Tumor uptake
Method: All the animal studies were conducted in compliance with Institutional Animal Care and Use Committee approval. The mice were housed five animals per cage in sterile micro-isolator cages in a temperature- and humidity-controlled room with a 12-h light/12-h dark schedule. […] Groups of 5 mice were sacrificed at 0.5, 2, 4 and 24 h post-injection, and tumors and organs of interest were harvested, weighed and counted. […] The tumor and organs of interest were harvested, weighed and counted. […]
Metric Name: tissue uptake at 24 h (%ID/g)
Give the number; %ID/g is assumed, so skip it.

# get_value(readout='tissue uptake at 24 h', item= CCCC[C@H](NC(=O)CN1CCN(CC(=O)O)CCN(CC(=O)O)CCN(CC(=O)O)CC1)C(=O)N[C@H]1CC(=O)NCCCC[C@@H](C(N)=O)NC(=O)[C@H](Cc2c[nH]c3ccccc23)NC(=O)[C@H](CCCNC(=N)N)NC(=O)[C@@H](Cc2ccccc2)NC(=O)[C@H](Cc2c[nH]cn2)NC1=O [^111In-DOTA-Nle-CycMSHhex, metal not drawn] ) 10.5

* * *

Experiment: Biodistribution in B16/F1 melanoma-bearing C57 mice
Format: in vivo
Conditions: female, C57, mouse, skin, iv, total radioactivity, 2 h post-injection, NDP blockade; read-out: Skin uptake
Metric Name: tissue uptake at 2 h (%ID/g)
Answer with a number only, understood to be in %ID/g.

Which value of tissue uptake at 2 h has been reported for CCCC[C@H](NC(=O)CN1CCN(CC(=O)O)CCN(CC(=O)O)CCN(CC(=O)O)CC1)C(=O)N[C@H]1CC(=O)NCCCC[C@@H](C(N)=O)NC(=O)[C@H](Cc2c[nH]c3ccccc23)NC(=O)[C@H](CCCNC(=N)N)NC(=O)[C@@H](Cc2ccccc2)NC(=O)[C@H](Cc2c[nH]cn2)NC1=O [^111In-DOTA-Nle-CycMSHhex, metal not drawn] in the records? 0.29
